assay: coupled detection enzyme interference, dose response, artefact control for MgcRacGAP inhibitor project, biochemical, coupled enzyme counter-screen (AID 624351); settings: ADP Hunter coupled enzyme counter-screen, fluorescence, no MgcRacGAP; series mostly up to 80 µM;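 note: signal is the ADP detection kit reading of free GDP without any GAP enzyme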
The campaign covered roughly 2,400 compounds. About 1,400 (58%) were called active.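 Rule for the calls: active = inhibition of 30% or more at any tested dose; inconclusive = primary hits over the limit that were never retested; inactive = the rest.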 So high a share suggests a set chosen from earlier hits. Some of the results follow.
Outcome codes: yes for active, no for inactive

COc1ccc(CN2CCC(C(N)=O)CC2)cc1OCc1ccccc1
no
COc1cc(CNc2ccc(N3CCN(C(C)=O)CC3)cc2)ccc1OCc1ccccc1
yes
CC(C)N1CCN(C(=O)c2cccc(Cl)c2)CC1
no
N=C1/C(=C/c2ccc(Br)o2)C(=O)N=C2SC(CC(=O)N3CCCC3)=NN12
no
COc1cc2cc(NC(C)=O)cc(NCc3ccccc3)c2cc1OC
yes
Nc1ccc2c(c1)Cc1cc(N)c(Cl)cc1-2
yes
Cc1ccc2c(c1)cc(C(=O)NCc1ccccc1)n2C
no
CN1CC(=O)N(CC(=O)Nc2ccc(N(C)C)cc2)c2ccccc2C1=O
yes
CCOC(=O)CSc1nc(N)c(C(=O)Nc2ccc(N(C)C)cc2)s1
yes
O=C(CN1CCN(c2ccccn2)CC1)Nc1ccc(F)cc1
no
Cc1ccccc1C(OCC(O)CN1CCN(CCO)CC1)c1ccccc1 (stereo not drawn)
no
Cc1cccc(N2C(S)=C(C#N)C(=O)NC2c2ccco2)c1 (stereo not drawn)
no
Cc1cc(NC(=O)CN2CCN(C)CC2)no1
no
c1ccc(-c2ccccc2OCCCCn2ccnc2)cc1
no
O=C(CN1CCCCCC1)NCC1CCCO1 (stereo not drawn)
no
Cc1ccc(NC(=O)CNCC(c2ccccc2)N(C)C)cc1F (stereo not drawn)
no
COc1cc2[nH]c(=S)nc(Nc3ccc(NC(C)=O)cc3)c2cc1OC
no
COc1cc(/C=N/NC(=O)c2ccc3c(c2)OCO3)ccc1O
yes
COc1cc2c(cc1N)-c1ccc(N)cc1C2
yes
CCOc1cc(/C=C2/NC(=O)N(Cc3ccccc3F)C2=O)ccc1O
yes
Cc1cc(C(=O)NNC(=O)/C=C/c2ccco2)c(C)o1
no
Cc1ccc(S(=O)(=O)Oc2ccc(/C=C3\C(=N)N4N=C(S(C)(=O)=O)SC4=NC3=O)cc2)cc1
no
CCCCNc1cc(NC(C)=O)cc2cc(OC)c(OC)cc12
yes
CCOc1cc(/C=C2\C(=O)ON=C2c2ccccc2)cc(Br)c1O
no
CC1CC(C)(C)N(C(=O)CN2CCN(C)CC2)c2ccccc21 (stereo not drawn)
no
CN(C)c1ccc(NC(=O)CCN2C(=O)c3cccc([N+](=O)[O-])c3C2=O)cc1
yes
COc1ccc(N2C(S)=C(C#N)C(=O)NC2c2ccco2)cc1 (stereo not drawn)
no
COc1ccc(CN2CCN(C(=O)CC(C)C)CC2)cc1OC
no
Cc1ccc(NC(=O)CN(C)C2CCCCC2)cc1Cl
no
Cc1cc(NC(=O)c2sc3ccccc3c2O)no1
yes
CSc1nc(C)c2c(n1)N(c1ccc(O)cc1)CC2
yes
CC1=CC(c2ccccc2)NC(=S)N1 (stereo not drawn)
no
O=C1ON=C(c2ccccc2)/C1=C/c1ccco1
no
COc1nc(N)nc(NC(=O)c2cccs2)c1N=O
no
N=C1/C(=C\c2ccc(Br)o2)C(=O)N=C2SC(CC(=O)N3CCOCC3)=NN12
no
Cc1ccc(NCCCCO)cc1C
yes
Nc1ccc2c(c1Br)Cc1ccccc1-2
yes
O=C(CN1CCCCCC1)Nc1nc2ccccc2s1
no
COc1cc(C2NC(=O)C(C#N)=C(Nc3cccc(C)c3)S2)ccc1O (stereo not drawn)
no
Cc1ccccc1SCC(=O)OCC(=O)Nc1ccc(N(C)C)cc1
yes
CCCCOc1ccc(NC(=O)CN2CCN(CC)CC2)cc1
no
Cc1ccc(NC(=O)CN2CCC(Cc3ccccc3)CC2)cc1S(=O)(=O)N(C)C
no
CN(C)c1ccc(NC(=O)CN2C(=O)c3ccccc3C2=O)cc1
yes
Cc1cc(NC(=O)CN2CCC(C)CC2)no1
no
COc1ccc(NC(C)c2cc(Cl)ccc2O)cc1 (stereo not drawn)
yes
CCOc1ccccc1NC(=O)C(NCC1(N2CCCCC2)CCCCC1)c1ccccc1 (stereo not drawn)
no
Cc1c(O)ccc2c3c(c(=O)oc12)CCCC3
yes
Oc1ccc(/C=N/Nc2nc(N3CCCC3)nc(N3CCCC3)n2)cc1O
yes
